target: UniProt Q13191; assay: Cbl-b inhibition assay (Cbl-b activity assay, FRET, Biological Example 1; 100 mM NaCl, 60 nM Src kinase); assay type: biochemical; details: upper bound stated in text lists; read-out: IC50 values in the Cbl-b inhibition assay of Biological Example 1
Sequence (Q13191 36-427): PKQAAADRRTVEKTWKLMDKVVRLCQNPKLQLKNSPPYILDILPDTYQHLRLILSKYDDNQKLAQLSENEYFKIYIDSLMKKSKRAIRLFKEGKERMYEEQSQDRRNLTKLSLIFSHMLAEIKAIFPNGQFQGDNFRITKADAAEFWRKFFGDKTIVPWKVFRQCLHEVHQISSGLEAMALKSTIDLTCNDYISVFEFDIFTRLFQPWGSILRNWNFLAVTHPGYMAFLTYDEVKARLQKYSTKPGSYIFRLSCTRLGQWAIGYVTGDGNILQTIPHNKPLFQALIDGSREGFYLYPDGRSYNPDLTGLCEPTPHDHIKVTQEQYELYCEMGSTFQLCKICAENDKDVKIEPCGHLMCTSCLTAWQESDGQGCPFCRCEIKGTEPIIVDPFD
Reported values of IC50 for individual entries

{"columns": ["molecule", "IC50"],
 "data": [
  ["CC1CN(c2cc3c(c(C(F)(F)F)c2)CN(c2cccc(C4(Cc5nncn5C)COC4)c2)C3=O)C1", "≤ 0.1 µM"],
  ["C[C@H](Cc1nncn1C)c1cc(N[C@@H]2CC[C@@H]2O)nc(N2Cc3c(cccc3C(F)(F)F)C2=O)c1 [Example 689a]", "≤ 1 µM"],
  ["CN1C[C@@H]2C[C@H]1CN2c1cc2c(c(C(F)(F)F)c1)CN(c1cccc([C@@](C)(F)C(F)(F)c3nncn3C)c1)C2=O", "≤ 0.1 µM"],
  ["C[C@H](Sc1nncn1C)c1cccc(NC(=O)c2cc(C(=O)N3C[C@H](O)C[C@H]3C)ccn2)c1", "≤ 10 µM"],
  ["Cn1cnnc1CC1(c2cccc(N3Cc4c(cc(CN5CCCC56COC6)cc4C(F)(F)F)C3=O)c2)COC1", "≤ 0.1 µM"],
  ["CC(O)c1cc2c(c(C(F)(F)F)c1)CN(c1cccc(C3(Cc4nncn4C)COC3)c1)C2=O (centres unmarked)", "≤ 0.1 µM"],
  ["C[C@H](Cc1nncn1C)c1cccc(NC(=O)c2cc(C(C)(C)O)cc(C(F)(F)F)n2)c1", "≤ 0.3 µM"],
  ["CNS(=O)(=O)c1cc(C(=O)Nc2cccc([C@H](C)Cc3nncn3C)c2)nc(C(F)(F)F)c1", "≤ 0.5 µM"],
  ["C[C@H]1CCN(Cc2cc3c(c(C(F)(F)F)c2)CN(c2cccc(C4(Cc5nncn5C)COC4)c2)C3=O)C[C@H]1F [Example 639b]", "≤ 0.1 µM"],
  ["C[C@H](Cc1nncn1C)c1cccc(N2Cc3c(cc([C@H](C)N4CC(O)C4)cc3C(F)(F)F)C2=O)c1", "≤ 0.1 µM"],
  ["C[C@H](Cc1nncn1C)c1cccc(NC(=O)c2cncc(C(F)(F)F)n2)c1", "≤ 0.5 µM"],
  ["C[C@H](Cc1nncn1C)c1cccc(NC(=O)c2cccc(C(F)(F)CO)n2)c1", "≤ 0.5 µM"],
  ["CC(c1cc(C(=O)Nc2cccc(C3(Cc4nncn4C)COC3)c2)nc(C2CC2)n1)N1CCC2(CC2)C1 (stereo in doubt) [Example 592a]", "≤ 0.1 µM"],
  ["C[C@H](Cc1nncn1C)c1cccc(NC(=O)c2cc(C(=O)N3CC[C@](C)(O)C3)ccn2)c1", "≤ 1 µM"]
]}
